Sourced from patent US9149476B2

# studyTarget: HIF-PH2 (EGLN1) (Homo sapiens, UniProt Q9GZT9)
# Construct: made in house; host or cells: insect Hi5 cells
# Sequence (Q9GZT9 whole entry): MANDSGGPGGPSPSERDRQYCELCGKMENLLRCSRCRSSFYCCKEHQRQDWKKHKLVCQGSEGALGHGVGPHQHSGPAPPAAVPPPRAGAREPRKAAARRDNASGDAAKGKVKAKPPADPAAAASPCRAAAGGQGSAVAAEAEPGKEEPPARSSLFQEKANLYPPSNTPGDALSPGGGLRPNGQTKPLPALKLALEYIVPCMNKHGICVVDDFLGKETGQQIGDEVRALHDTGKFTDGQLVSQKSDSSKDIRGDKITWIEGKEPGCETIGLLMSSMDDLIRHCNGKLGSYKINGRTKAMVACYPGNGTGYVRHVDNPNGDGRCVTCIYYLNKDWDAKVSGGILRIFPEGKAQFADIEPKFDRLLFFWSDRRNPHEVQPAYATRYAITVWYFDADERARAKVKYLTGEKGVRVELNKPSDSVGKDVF
# experiment: HIF-PH assay (14CO2 capture, peptide-dependent turnover)
# Format: biochemical
# assayContext: compound concentration 200 μM
quantityMeasured: inhibition at 200 µM (%)

smilesRepresentation	quantityMeasured	recordedResult
O=C(O)CNC(=O)c1c(O)c2ccccc2sc1=O	inhibition at 200 µM	99.2
O=C(O)CNC(=O)c1c(O)c2cc(F)ccc2sc1=O	inhibition at 200 µM	100
CCCCCCOc1ccc2sc(=O)c(C(=O)NCC(=O)O)c(O)c2c1	inhibition at 200 µM	100
COc1cc2sc(=O)c(C(=O)NCC(=O)O)c(O)c2cc1OC	inhibition at 200 µM	99.4

###

# studyTarget: HIF-PH2 (EGLN1) (Homo sapiens)
# Construct: made in house; host or cells: insect Hi5 cells
# experiment: HIF-PH assay (14CO2 capture, peptide-dependent turnover)
# Format: biochemical
# assayContext: compound concentration 50 μM

smilesRepresentation	inhibition at 50 µM (%)
Cn1nc(C(F)(F)F)cc1-c1ccc2c(O)c(C(=O)NCC(=O)O)c(=O)sc2c1	98.6
O=C(O)CNC(=O)c1c(O)c2ccc(-c3ccc(F)c(Cl)c3)cc2sc1=O	92.8
O=C(O)CNC(=O)c1c(O)c2ccc(-c3ccc(C(F)(F)F)cc3)cc2sc1=O	95.8
O=C(O)CNC(=O)c1c(O)c2cccc(-c3ccccc3)c2sc1=O	98.8
O=C(O)CNC(=O)c1c(O)c2ccc(-c3cncnc3)cc2sc1=O	99.5
O=C(O)CNC(=O)c1c(O)c2cccc(Cc3ccccc3)c2sc1=O	100
C[C@H](NC(=O)c1c(O)c2ccc(-c3cc(C(F)(F)F)nn3C)cc2sc1=O)C(=O)O	94.5
O=C(O)CNC(=O)c1c(O)c2ccc(-c3cc(Cl)cc(Cl)c3)cc2sc1=O	96.7
O=C(O)CNC(=O)c1c(O)c2ccc(-c3ccc4ccccc4c3)cc2sc1=O	87.9
O=C(O)CNC(=O)c1c(O)c2cc(OCc3ccccc3)ccc2sc1=O	100
O=C(O)CNC(=O)c1c(O)c2ccc(C3CC3)cc2sc1=O	99
COc1cccc(-c2ccc3c(O)c(C(=O)NCC(=O)O)c(=O)sc3c2)c1	97.5
Cc1cc(Cl)cc2c(O)c(C(=O)NCC(=O)O)c(=O)sc12	95.6
COc1ccccc1-c1ccc2c(O)c(C(=O)NCC(=O)O)c(=O)sc2c1	97.2
O=C(O)CNC(=O)c1c(O)c2c(F)cccc2sc1=O	98.5
Cn1nc(C(F)(F)F)cc1-c1cccc2c(O)c(C(=O)NCC(=O)O)c(=O)sc12	100
O=C(O)CNC(=O)c1c(O)c2cc(Cl)cc(-c3cccnc3)c2sc1=O	100
O=C(O)CNC(=O)c1c(O)c2cccc(-c3cc(C(F)(F)F)cc(C(F)(F)F)c3)c2sc1=O	100

###

# studyTarget: HIF-PH2 (EGLN1) (Homo sapiens, UniProt Q9GZT9)
# Construct: made in house; host or cells: insect Hi5 cells
# experiment: HIF-PH assay (14CO2 capture, peptide-dependent turnover)
# Format: biochemical
# assayContext: compound concentration 67 μM
quantityMeasured: inhibition at 67 µM (%)

smilesRepresentation	studyTarget	quantityMeasured	recordedResult
O=C(O)CNC(=O)c1c(O)c2ccc(-c3ccccc3C(F)(F)F)cc2sc1=O	HIF-PH2 (EGLN1) (Homo sapiens, UniProt Q9GZT9)	inhibition at 67 µM	93.2
O=C(O)CNC(=O)c1c(O)c2cc(-c3ccc(F)cc3)ccc2sc1=O	HIF-PH2 (EGLN1) (Homo sapiens, UniProt Q9GZT9)	inhibition at 67 µM	96.6
O=C(O)CNC(=O)c1c(O)c2cc(-c3ccccc3C(F)(F)F)ccc2sc1=O	HIF-PH2 (EGLN1) (Homo sapiens, UniProt Q9GZT9)	inhibition at 67 µM	99.8
COc1ccc(-c2ccc3sc(=O)c(C(=O)NCC(=O)O)c(O)c3c2)cc1	HIF-PH2 (EGLN1) (Homo sapiens, UniProt Q9GZT9)	inhibition at 67 µM	99.1
O=C(O)CNC(=O)c1c(O)c2cc(-c3ccccc3Cl)ccc2sc1=O	HIF-PH2 (EGLN1) (Homo sapiens, UniProt Q9GZT9)	inhibition at 67 µM	99.7
C[C@H](NC(=O)c1c(O)c2ccc(-c3cccc(F)c3)cc2sc1=O)C(=O)O	HIF-PH2 (EGLN1) (Homo sapiens, UniProt Q9GZT9)	inhibition at 67 µM	98.4
O=C(O)CNC(=O)c1c(O)c2ccc(-c3cc(C(F)(F)F)cc(C(F)(F)F)c3)cc2sc1=O	HIF-PH2 (EGLN1) (Homo sapiens, UniProt Q9GZT9)	inhibition at 67 µM	96.4
C[C@H](NC(=O)c1c(O)c2cc(Br)ccc2sc1=O)C(=O)O	HIF-PH2 (EGLN1) (Homo sapiens, UniProt Q9GZT9)	inhibition at 67 µM	98
O=C(O)CNC(=O)c1c(O)c2ccc(-c3cccc(F)c3)cc2sc1=O	HIF-PH2 (EGLN1) (Homo sapiens, UniProt Q9GZT9)	inhibition at 67 µM	99.1
COc1ccccc1-c1ccc2sc(=O)c(C(=O)NCC(=O)O)c(O)c2c1	HIF-PH2 (EGLN1) (Homo sapiens, UniProt Q9GZT9)	inhibition at 67 µM	94.7
O=C(O)CNC(=O)c1c(O)c2cc(Br)ccc2sc1=O	HIF-PH2 (EGLN1) (Homo sapiens, UniProt Q9GZT9)	inhibition at 67 µM	100
O=C(O)CNC(=O)c1c(O)c2cc(-c3cccc(F)c3)ccc2sc1=O	HIF-PH2 (EGLN1) (Homo sapiens, UniProt Q9GZT9)	inhibition at 67 µM	98.4
O=C(O)CNC(=O)c1c(O)c2cc(-c3cc(C(F)(F)F)cc(C(F)(F)F)c3)ccc2sc1=O	HIF-PH2 (EGLN1) (Homo sapiens, UniProt Q9GZT9)	inhibition at 67 µM	99.4
